# Test Target: Glutamate NMDA receptor
# Assay Remarks: Binding affinity at TCP site of NMDA receptor was determined in rat brain homogenate by [3H]TCP displacement.
Quantity Name: Ki

Could you tell me which Ki is on file for c1ccc2c(c1)C1CC(c3nccs3)(c3nccs3)C2c2cccc[n+]21 (stereo not given) ?
17 nM

Same question for Clc1cccc(C2(c3cccc(Cl)c3)CC3c4ccccc4C2c2cccc[n+]23)c1 (stereo not given) please.
104 nM

Same question for Fc1ccc(C2(c3ccc(F)cc3)CC3c4ccccc4C2c2cccc[n+]23)cc1 (stereo not given) please.
2210 nM

Same question for c1ccc(C2(c3ccccn3)CC3c4ccccc4C2c2cccc[n+]23)nc1 (stereo not given) please.
8.4 nM

Same question for [Cl-].c1ccc2c(c1)C1CC(c3ccoc3)(c3ccoc3)C2c2cccc[n+]21 (stereo not given) please.
1.8 nM

---

For each record, write down the corresponding pKi.
# Test Target: Glutamate NMDA receptor
# Assay Remarks: Binding affinity at TCP site of NMDA receptor was determined in rat brain homogenate by [3H]TCP displacement.
When answering, recall that pKi equals minus log10 of the concentration in mol/L, and write that number alone.

Could you tell me which pKi is on file for c1ccc2c(c1)C1CC(c3ccsc3)(c3ccsc3)C2c2cccc[n+]21 (centres undefined) ?
8.74

Same question for COc1cccc(C2(c3cccc(OC)c3)CC3c4ccccc4C2c2cccc[n+]23)c1 (centres undefined) please.
7.39

Same question for CCOC1(OCC)C2c3ccccc3C([n+]3ccccc32)C1(C)C.[Cl-] (centres undefined) please.
8.28

Same question for c1ccc2c(c1)C1CC(c3cocn3)(c3cocn3)C2c2cccc[n+]21 (centres undefined) please.
7.03

---

# Assay Remarks: LogD value of the compound
# Format: physicochemical
# Cond: octanol/water; read-out: logD
For each record, write down the corresponding logD.
I only need the number, thanks.

Could you tell me which logD is on file for c1ccc(C2(N3CCCCC3)CCCCC2)cc1 [PHENCYCLIDINE] ?
1.76

Same question for C[C@]12N[C@H](Cc3ccccc31)c1ccccc12 [DIZOCILPINE] please.
1.79

Same question for [Cl-].c1ccc2c(c1)C1CC(c3ccoc3)(c3ccoc3)C2c2cccc[n+]21 (stereo not drawn) please.
-3.41

Hello, the source for this data is ChEMBL document CHEMBL1128339, in case you need it.
